// pIC50 lookup, one value per entry
molecular target: ALPK1 (Homo sapiens (Human)); experiment: ALPK1 in vitro kinase assay (HTRF of TIFA phosphorylation); format: biochemical; conditions: ALPK1 2 nM, TIFA substrate, ADP-Heptose activator, HTRF readout
Sequence (Q96QP1 whole entry): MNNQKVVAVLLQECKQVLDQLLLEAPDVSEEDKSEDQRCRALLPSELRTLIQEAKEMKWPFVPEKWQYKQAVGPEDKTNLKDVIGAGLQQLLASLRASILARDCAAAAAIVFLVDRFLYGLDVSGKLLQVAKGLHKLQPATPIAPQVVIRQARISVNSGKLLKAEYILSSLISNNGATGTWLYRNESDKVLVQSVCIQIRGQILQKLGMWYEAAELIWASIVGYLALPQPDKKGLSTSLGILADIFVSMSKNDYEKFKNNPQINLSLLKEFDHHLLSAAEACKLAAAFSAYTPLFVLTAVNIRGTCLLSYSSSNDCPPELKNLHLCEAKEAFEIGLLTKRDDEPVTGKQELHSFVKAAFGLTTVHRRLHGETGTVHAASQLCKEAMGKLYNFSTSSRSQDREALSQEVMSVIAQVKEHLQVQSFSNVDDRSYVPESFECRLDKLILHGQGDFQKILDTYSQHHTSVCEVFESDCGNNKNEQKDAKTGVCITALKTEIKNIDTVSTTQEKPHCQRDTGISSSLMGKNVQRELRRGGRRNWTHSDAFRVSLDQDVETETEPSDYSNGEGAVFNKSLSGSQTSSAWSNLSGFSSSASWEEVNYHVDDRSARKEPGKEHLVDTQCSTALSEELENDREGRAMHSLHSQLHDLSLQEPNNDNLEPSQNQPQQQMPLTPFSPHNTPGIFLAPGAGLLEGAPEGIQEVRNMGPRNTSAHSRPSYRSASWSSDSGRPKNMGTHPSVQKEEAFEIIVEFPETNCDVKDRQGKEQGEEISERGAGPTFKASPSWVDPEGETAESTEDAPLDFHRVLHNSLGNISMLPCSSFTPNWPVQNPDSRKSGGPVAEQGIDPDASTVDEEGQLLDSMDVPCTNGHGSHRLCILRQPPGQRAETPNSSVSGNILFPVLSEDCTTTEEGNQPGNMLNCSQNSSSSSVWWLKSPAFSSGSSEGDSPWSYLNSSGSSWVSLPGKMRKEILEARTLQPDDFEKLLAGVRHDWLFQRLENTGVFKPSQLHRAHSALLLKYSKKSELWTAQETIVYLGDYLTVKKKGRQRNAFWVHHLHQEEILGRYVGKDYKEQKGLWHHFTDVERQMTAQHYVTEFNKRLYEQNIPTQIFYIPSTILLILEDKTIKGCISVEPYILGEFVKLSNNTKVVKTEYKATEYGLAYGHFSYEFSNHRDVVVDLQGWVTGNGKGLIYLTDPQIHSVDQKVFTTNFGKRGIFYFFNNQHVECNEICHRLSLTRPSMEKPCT
Lab note — pIC50 values are minus log10 of concentrations in M.

Known results for molecules:
# Molecule, Measured Target, pIC50
measured = [
    ("COc1ccc(C(C)(C)c2csc(NC(=O)c3ccc(N4CCNCC4)cn3)n2)cc1 [Example B044]", "ALPK1 (Homo sapiens (Human))", 6.67),
    ("COc1ccc(C(C)(C)c2csc(NC(=O)c3ccc(N4CCC(N)C4)cc3)n2)cc1 (stereo not shown) [Example B041]", "ALPK1 (Homo sapiens (Human))", 7.10),
    ("O=C(Nc1nc(C2(c3ccc(Br)cc3)CCCC2)cs1)c1c(F)cc(N2CCNCC2)cc1F [Example C006]", "ALPK1 (Homo sapiens (Human))", 7.37),
    ("COc1ccc(C(C)(C)c2csc(NC(=O)c3cnc(N4CCNCC4)nc3)n2)cc1 [Example B015]", "ALPK1 (Homo sapiens (Human))", 6.79),
    ("CC(C)(c1ccc(Br)cc1)c1csc(NC(=O)c2ccc3[nH]ccc3c2)n1 [Example B002]", "ALPK1 (Homo sapiens (Human))", 6.69),
    ("C#C[C@@](C)(c1ccc(OC)cc1)c1csc(NC(=O)c2c(F)cc(N3CCNCC3)cc2F)n1 (stereo in doubt) [Example C036]", "ALPK1 (Homo sapiens (Human))", 7.17),
]

Q: Determine from records and report pIC50 for C#C[C@@](C)(c1ccc(Cl)cc1)c1csc(NC(=O)c2ccc(N3CCNCC3)cc2)n1 (stereo in doubt) [Example B067]
A: 7.05
